# system tested: MCL-1 (Homo sapiens (Human), UniProt Q07820, K194A/K197A/R201A)
# Sequence (Q07820 whole entry K194A/K197A/R201A, looked up): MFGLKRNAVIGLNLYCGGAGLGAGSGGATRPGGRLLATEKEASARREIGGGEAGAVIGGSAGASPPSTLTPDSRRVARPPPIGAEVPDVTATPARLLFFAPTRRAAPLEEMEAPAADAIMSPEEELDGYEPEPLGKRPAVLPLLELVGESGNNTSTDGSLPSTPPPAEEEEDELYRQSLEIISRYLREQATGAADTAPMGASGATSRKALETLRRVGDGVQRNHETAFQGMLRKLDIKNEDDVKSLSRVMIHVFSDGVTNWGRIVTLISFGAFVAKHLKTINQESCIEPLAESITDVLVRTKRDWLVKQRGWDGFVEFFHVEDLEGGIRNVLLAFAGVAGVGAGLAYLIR
# procedure text: Protein-protein interaction assay MCL-1/Noxa BH3 peptide (MCL-1 assay, TR-FRET)
# Assay type: binding
# cond: MBP-MCL-1 / Noxa BH3 peptide, median
# Method: Protein-Protein Interaction Assay: MCL-1/Noxa BH3 Peptide (MCL-1 Assay) The dose-dependent inhibition by the compounds described in this invention of the interaction between MCL-1 and the BH3 domain of Noxa (both human) was determined using a steady state binding competition assay with time-resolved fluorescence energy transfer (TR-FRET) readout. […]
Each record is given Satisfied if its reported IC50 is strictly below 6 nM. Records at or above 6 nM are given Not satisfied.

Take a look at these entries with their results.
• CCc1c2c(nn1C)CNS(=O)(=O)CCCn1c(C(=O)O)c(CCCOc3cccc4ccccc34)c3cccc-2c31 (racemic) = Not satisfied
• Cc1c2c(nn1C)CN(CCN1CCOCC1)S(=O)(=O)CCCn1c(C(=O)O)c(CCCOc3cccc4ccccc34)c3cccc-2c31 (single isomer, unassigned; enantiomer 1) [Example 2] = Satisfied
• Cc1c2c(nn1C)C(CCN1CCOCC1)N(C)S(=O)(=O)CCCn1c(C(=O)O)c(CCCOc3cccc4ccccc34)c3cccc-2c31 (racemic) [Example 44] = Satisfied
• CCc1c2c(nn1C)CN(CCCN1CCOCC1)S(=O)(=O)CCCn1c(C(=O)O)c(CCCOc3cccc4ccccc34)c3cccc-2c31 (racemic) = Satisfied
• Cc1c2c(nn1C)CN(CCN1CCOCC1)S(=O)(=O)CCCn1c(C(=O)O)c(CCCOc3cccc4ccccc34)c3cccc-2c31 (single isomer, unassigned; enantiomer 2) [Example 3] = Not satisfied

Request: Dear reviewer, please state whether CCc1c2c(nn1C)C(CCN1CCOCC1)N(C)S(=O)(=O)CCCn1c(C(=O)O)c(CCCOc3cccc4cc(F)ccc34)c3ccc(Cl)c-2c31 (racemic) [Example 74] has IC50 strictly beneath 6 nM.
Response: Satisfied

Hey, just so you know, these numbers are from patent US11401278B2.
